# System: CAF#4 (primary prostate cancer-associated fibroblasts of iCAF-like type)
# assay: drug sensitivity score (DSS2, normalised partial AUC of dose-response, 72 h CellTiter-Glo viability) (DSS (dimensionless)); higher = more sensitive (stronger growth inhibition / cytotoxicity); extreme values may be limits of the assay
measured-parameter: drug sensitivity score
Number only, no unit.

1) O=C(O)C1(C(=O)O)CCC1.[NH2-].[NH2-].[Pt+2] [Carboplatin] (tested concentration range 10-100000 nM) ... 5.5

[ask] Reported drug sensitivity score, compound COc1cccc2c1C(=O)c1c(O)c3c(c(O)c1C2=O)C[C@@](O)(C(=O)CO)C[C@@H]3O[C@H]1C[C@H](N)[C@H](O)[C@H](C)O1 [Doxorubicin] (tested concentration range 0.1-1000 nM) : ____
[reply] 2.6

[ask] Reported drug sensitivity score, compound CN(C)Cc1c(C(=O)NCCOc2ccc(C(=O)NO)cc2)oc2ccccc12 [Abexinostat] (tested concentration range 1-10000 nM) : ____
[reply] 6.9

[ask] Reported drug sensitivity score, compound C=C1C[C@@H]2CC[C@@]34C[C@H]5O[C@H]6[C@@H](O3)[C@H]3O[C@H](CC[C@@H]3O[C@H]6[C@H]5O4)CC(=O)C[C@@H]3[C@@H](OC)[C@@H](C[C@H](O)CN)O[C@H]3C[C@H]3O[C@@H](CC[C@@H]1O2)C[C@@H](C)C3=C [Eribulin] (tested concentration range 0.1-1000 nM) : ____
[reply] 9.6

[ask] Reported drug sensitivity score, compound CC(C)N(C[C@H]1O[C@@H](n2cnc3c(N)ncnc32)[C@H](O)[C@@H]1O)[C@H]1C[C@@H](CCc2nc3cc(C(C)(C)C)ccc3[nH]2)C1 [Pinometostat] (tested concentration range 0.1-1000 nM) : ____
[reply] 0

[ask] Reported drug sensitivity score, compound CCCCC(=O)OCC(=O)[C@]1(O)Cc2c(O)c3c(c(O)c2[C@@H](O[C@H]2C[C@H](NC(=O)C(F)(F)F)[C@H](O)[C@H](C)O2)C1)C(=O)c1c(OC)cccc1C3=O [Valrubicin] (tested concentration range 0.5-5000 nM) : ____
[reply] 4.9

[ask] Reported drug sensitivity score, compound CC1(C)OCCn2c1nc1c(N3CCOCC3)nc(-c3cnc(N)nc3)nc12 [Paxalisib] (tested concentration range 1-10000 nM) : ____
[reply] 13

[ask] Reported drug sensitivity score, compound Nc1ncn([C@H]2C[C@H](O)[C@@H](CO)O2)c(=O)n1 [Decitabine] (tested concentration range 1-10000 nM) : ____
[reply] 0

[ask] Reported drug sensitivity score, compound Cc1cc(F)c(C(=O)Nc2cccc(-c3nncn3C(C)C)n2)cc1-n1cnc(C2CC2)c1 [Selonsertib] (tested concentration range 0.1-1000 nM) : ____
[reply] 0

[ask] Reported drug sensitivity score, compound Nc1ccccc1NC(=O)c1ccc(CNc2nccc(-c3cccnc3)n2)cc1 [Mocetinostat] (tested concentration range 1-10000 nM) : ____
[reply] 8.4

[ask] Reported drug sensitivity score, compound Clc1ccc(C(c2ccccc2Cl)C(Cl)Cl)cc1 (stereo unspecified) [Mitotane] (tested concentration range 1-10000 nM) : ____
[reply] 0

[ask] Reported drug sensitivity score, compound CNC(=O)c1cc(Oc2ccc(NC(=O)Nc3ccc(Cl)c(C(F)(F)F)c3)cc2)ccn1 [Sorafenib] (tested concentration range 0.1-1000 nM) : ____
[reply] 1.2

[ask] Reported drug sensitivity score, compound O=C(c1ccc(C(=O)N2CCC(N3CCCC3)CC2)c(Nc2ccccc2)c1)N1CCC(N2CCCC2)CC1 [UNC1215] (tested concentration range 1-10000 nM) : ____
[reply] 0

[ask] Reported drug sensitivity score, compound Cc1c(C(=O)Nc2ccc(N3C[C@@H](C)O[C@@H](C)C3)nc2)cccc1-c1ccc(OC(F)(F)F)cc1 [Sonidegib] (tested concentration range 1-10000 nM) : ____
[reply] 3.2

[ask] Reported drug sensitivity score, compound CO[C@H]1CC[C@H](N2C(=O)CNc3ncc(-c4ccc(C(C)(C)O)nc4)nc32)CC1 [ATG-008] (tested concentration range 1-10000 nM) : ____
[reply] 6.5

[ask] Reported drug sensitivity score, compound O=C1Cc2cc(C(=O)NC3C[C@H]4CC[C@@H](C3)N4S(=O)(=O)CC3CCN(CCCC(F)(F)F)CC3)c(Cl)cc2N1 (stereo partly specified) (tested concentration range 1-10000 nM) : ____
[reply] 0

[ask] Reported drug sensitivity score, compound FC(F)(F)c1ccc(CNc2ccc(Cc3c[nH]c4ncc(Cl)cc34)cn2)cn1 [Pexidartinib] (tested concentration range 1-10000 nM) : ____
[reply] 3

[ask] Reported drug sensitivity score, compound CC[C@@H]1C(=O)N(C)c2cnc(Nc3ccc(C(=O)N[C@H]4CC[C@H](N5CCN(CC6CC6)CC5)CC4)cc3OC)nc2N1C(C)C [Volasertib] (tested concentration range 0.1-1000 nM) : ____
[reply] 0
